System: E13 (patient-derived glioblastoma stem cells of classical subtype);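 note: cell Painting imaging in 384-well plates, CellProfiler features reduced to at least 20 principal components, Euclidean distance versus same-plate DMSO vehicle wells (0.1% v/v), median over six images per well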
Test: phenotypic distance (Euclidean, principal components) from DMSO controls (arbitrary units); higher = stronger morphological change
Details: 333.3 nM; exposure time: 72 h
Structures can show the parent of a compound that is named as a salt.
Reported phenotypic distance values for the following compounds.
Response field accepts a number only; no unit should be typed.

S=c1[nH]cnc2nc[nH]c12    0.609
Cc1cccn2c(=O)c(-c3nnn[nH]3)cnc12    3.24
COc1ccc(C(=O)CC(=O)c2ccc(C(C)(C)C)cc2)cc1    0.627

Per the record, `Oc1ccc(OCc2ccccc2)cc1` has phenotypic distance of 0.563

Per the record, `COc1cccc2c(NCc3ccccc3)nc(-n3c(N)nc4ccccc43)nc12` has phenotypic distance of 0.67

Per the record, COC(=O)C1=C(C)NC(C)=C(C(=O)OCC(C)C)C1c1ccccc1[N+](=O)[O-] (centres undefined) has phenotypic distance of 1.31

Per the record, `O=C(/C=C/c1cccnc1)NCCCCC1CCN(C(=O)c2ccccc2)CC1` has phenotypic distance of 2.17

Per the record, CN1[C@@H]2CC[C@H]1CC(OC(=O)c1c[nH]c3ccccc13)C2 (some centres undefined) [3-Tropanyl-indole-3-carboxylate hydrochloride] has phenotypic distance of 0.624

Per the record, COc1ccc(/C=C\c2cc(OC)c(OC)c(OC)c2)cc1OP(=O)(O)O [Fosbretabulin Disodium] has phenotypic distance of 5.64
